Reported MPO release from human PMNs, pD2 values for a set of binders
Biological target: T1, C5a receptor expressed on the surface of human PMNs (human, UniProt P21730 1-350)
T1 sequence (looked up): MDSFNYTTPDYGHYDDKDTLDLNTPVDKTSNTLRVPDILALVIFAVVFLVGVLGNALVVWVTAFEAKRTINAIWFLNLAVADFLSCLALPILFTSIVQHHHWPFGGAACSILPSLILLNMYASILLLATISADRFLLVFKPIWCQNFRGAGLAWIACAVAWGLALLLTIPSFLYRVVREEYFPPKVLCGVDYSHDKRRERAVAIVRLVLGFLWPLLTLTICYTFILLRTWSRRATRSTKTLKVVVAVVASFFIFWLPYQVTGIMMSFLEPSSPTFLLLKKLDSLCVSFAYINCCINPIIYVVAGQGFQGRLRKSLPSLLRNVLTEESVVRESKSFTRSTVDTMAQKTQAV
Assay: cell-based or functional assay
Non-standard residues stand in square brackets, D forms with d. No end group written: not given here.

| binder | MPO release from human PMNs, pD2 |
| --- | --- |
| natural C5a (ligand, UniProt P01031 678-751, looked up, C5a is a fragment of it) TLQKKIEEIAAKYKHSVVKKCCYDGACVNNDETCEQRAARISLGPRCIKAFTECCVVASQLRANISHKDMQLGR | 8.5 -log EC50 (M) |
| IPQSLDSWWTSLYSFKPMPL[dA]R (synthetic peptide) [IPQSLDSWWTSLYSFKPMPLaR] | 5.8 -log EC50 (M) |
| IPQSLDSWWTSLRVRRYSFKPMPL[dA]R (synthetic peptide; also called RVRR-containing C5a-active construct) [IPQSLDSWWTSLRVRRYSFKPMPLaR] | 5.61 -log EC50 (M) |
| IPQSLDSWWTSLRRYSFKPMPL[dA]RG (synthetic peptide) [IPQSLDSWWTSLRRYSFKPMPLaRG] | 5.59 -log EC50 (M) |
| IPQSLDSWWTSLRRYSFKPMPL[dA]R (synthetic peptide; also called double-Arg-linked C5a-active construct) [IPQSLDSWWTSLRRYSFKPMPLaR] | 6.27 -log EC50 (M) |
| YSFKPMPL[dA]RRRIPQSLDSWWTSL (synthetic peptide) [YSFKPMPLa[…]] | > 3 -log EC50 (M) |
